Provide the reported pEC50 of each item.
# System: GST-RIPK1 (recombinant GST-RIPK1 kinase domain (residues 1-327)) (Homo sapiens, UniProt Q13546)
# Construct: recombinant GST-RIPK1 kinase domain (residues 1-327) enzyme produced from baculovirus-transfected Sf21 cells
# Sequence (Q13546 1-327): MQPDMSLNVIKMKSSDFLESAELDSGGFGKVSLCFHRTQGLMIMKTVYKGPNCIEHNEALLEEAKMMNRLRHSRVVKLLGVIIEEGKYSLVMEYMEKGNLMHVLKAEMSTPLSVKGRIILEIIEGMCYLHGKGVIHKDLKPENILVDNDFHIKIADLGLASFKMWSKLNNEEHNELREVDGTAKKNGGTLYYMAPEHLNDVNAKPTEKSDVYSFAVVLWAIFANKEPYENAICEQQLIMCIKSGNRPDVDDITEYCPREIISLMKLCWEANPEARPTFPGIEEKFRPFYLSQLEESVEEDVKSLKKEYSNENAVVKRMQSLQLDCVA
# Measurement Protocol: RIPK1-ADP-Glo Enzymatic Assay
# Condition: ten-point titration, top compound concentration of 100000 nM; 25 nM GST-RIPK1, 300 μM ATP, 3 μM dephosphorylated-MBP; 30 min pre-incubation, 150 min reaction
Numbers only, as −log10 of the molar value.

O=C1N2[C@@H](CC[C@H]2c2cc(F)cc(F)c2)O[C@]12C[C@H](Oc1nccc3nccn13)C2; 7.85
O=C1N2C(CC[C@H]2c2cnccn2)OC12CC(OCc1csc3ncccc13)C2 (stereo partly shown) [Example 18.68]; 7.37
N#CC1(c2ccc(COC3CC4(C3)OC3CC[C@@H](c5cnccn5)N3C4=O)cn2)CCC1 (stereo partly shown) [Example 18.78]; 6.14

From here, focus on the item given below.
stdin: Need pEC50, item O=C1N2[C@@H](CC[C@H]2c2cnccn2)O[C@]12C[C@H](Oc1ncnn3cccc13)C2
stdout: 7.82
